The reader will find reported Kd values listed item by item below.
Molecular target: T1, recombinant human Tie2 Ig3-FNIII(1-3) domains (human, UniProt Q02763 349-738)
T1 construct: also called hTie2-Ig3-FNIII(1-3)
T1 sequence (Q02763 349-738 limits assumed): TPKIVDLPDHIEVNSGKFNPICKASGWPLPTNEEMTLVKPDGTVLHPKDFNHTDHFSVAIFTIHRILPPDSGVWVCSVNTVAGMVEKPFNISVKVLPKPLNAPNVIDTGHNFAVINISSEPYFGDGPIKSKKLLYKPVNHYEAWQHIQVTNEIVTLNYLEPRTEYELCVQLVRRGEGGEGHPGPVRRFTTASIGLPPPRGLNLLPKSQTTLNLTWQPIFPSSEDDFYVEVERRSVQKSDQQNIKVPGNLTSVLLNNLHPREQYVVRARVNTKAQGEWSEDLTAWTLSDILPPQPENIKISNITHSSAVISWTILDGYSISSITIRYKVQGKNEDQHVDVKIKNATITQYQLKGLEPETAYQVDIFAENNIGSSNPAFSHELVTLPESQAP
Assay: BLI (Octet), antibody immobilised on AR2G sensor, recombinant hTie2 as analyte, 1:1 global fit
Experimental: The affinity of humanized anti-Tie2 antibody against hTie2 was measured using Octet® system (ForteBio) where Black 96-well plates (96 well F-type black plates, Greiner) were used. […] After the hydration, humanized anti-Tie2 antibody was diluted in 10 mM sodium acetate, pH 6.0 buffer at a concentration of 10 μg/ml, fixed on AR2G biosensor, and blocked with 1M ethanolamine. […]
Kindly provide the numeric value in nM only, without the unit symbol.

{"columns": ["Binder", "Readout Kind", "Observed"],
 "data": [
  ["mouse anti-Tie2 antibody 3H7 (antibody, V domains shown) VH: QVQLQQPGAELVRPGASVKLSCKASGYSFTSYWMNWVKQRPGQGLEWIGMIHPSDSETRLNQKFMDKATLTVDKSSSTAYMQLSSPTSEDSAVYYCARGLYGNSWGQGTLVTVSA VL: DIQMTQSPSSLSASLGERVSLTCRASQDIGISLNWLQQEPDGTIKRLIYATSSLDSGVPKRFSGSRSGSDYSLTISSLESEDFVDYYCLQYASSPYTFGGGTKLEIK", "Kd", 0.0269]
]}

I'd like to know its Kd. The binder in question is humanized anti-Tie2 antibody 3H7H12G4 (antibody, V domains shown) VH: QVQLVQSGAEVKKPGASVKVSCKASGYTFTSYWMNWVRQAPGQGLEWMGMIHPSDSETRLNQKFMDRVTMTRDTSTSTVYMELSSLRSEDTAVYYCARGLYGNSWGQGTLVTVSS VL: DIQMTQSPSSLSASVGDRVTITCRASQDIGISLNWLQQEPGKAPKRLIYATSSLDSGVPKRFSGSGSGTEFTLTISSLQPEDFATYYCLQYASSPYTFGQGTKVEIK
96.5
